The reader will find reported solubility SETM (THF) values listed item by item below.
assay: solubility SETM (THF): mass of tetrahydrofuran required to dissolve 1 g of the azoquinone derivative; assay type: physicochemical; conditions: mass (g) of tetrahydrofuran required to dissolve 1 g of the azoquinone derivative

{"compound smiles": "CC(C)(C)C1=CC(=CN=Nc2ccc(F)cc2F)C=C(C(C)(C)C)C1=O", "qualifier operator": "=", "solubility SETM (THF) / g": 15}
{"compound smiles": "CC(C)(C)C1=CC(=CN=Nc2c(Cl)cccc2Cl)C=C(C(C)(C)C)C1=O", "qualifier operator": "≤", "solubility SETM (THF) / g": 1}
{"compound smiles": "CC(C)(C)C1=CC(=CN=Nc2cc(Cl)ccc2Cl)C=C(C(C)(C)C)C1=O", "qualifier operator": "=", "solubility SETM (THF) / g": 1}
{"compound smiles": "CC(C)(C)C1=CC(=CN=Nc2c(Cl)cc(Cl)cc2Cl)C=C(C(C)(C)C)C1=O", "qualifier operator": "=", "solubility SETM (THF) / g": 1}
{"compound smiles": "CC(C)(C)C1=CC(=CN=Nc2c(F)c(F)c(F)c(F)c2F)C=C(C(C)(C)C)C1=O", "qualifier operator": "=", "solubility SETM (THF) / g": 22}
{"compound smiles": "CC(C)(C)C1=CC(=CN=Nc2ccc(Cl)cc2)C=C(C(C)(C)C)C1=O", "qualifier operator": "=", "solubility SETM (THF) / g": 3}
